The measured values listed here are drawn from a melting point compilation (Tetko et al.).

Binarize melting point at 100 °C; below is condition met, at or above is condition not met.

Look over these answered cases.
{"columns": ["compound", "labelClass"],
 "data": [
  ["COc1ccc(C(C)=O)cc1O", "condition met"],
  ["Cc1cc(O)cc(Br)c1", "condition met"],
  ["O=C1CCN(C(=O)CCl)N1", "condition not met"]
]}

Strictly below 100 °C in melting point? "FC(F)CC(F)(F)F" condition met

Does this compound meet the criterion melting point < 100 °C? "CC(C)(C)NC(=O)COC(=O)c1ccccc1" condition not met

Lab note: confirm whether the reported melting point for this compound is below 100 °C, equality not counting. compound: "CC(C)c1ccccc1" condition met

Problem: For the compound CC1(C)OC(C)(C(C)(C)O)CCC1C(=O)O (stereo not drawn) , is melting point under 100 °C? condition not met

Identify whether the compound "CNC1=CC(=O)c2ccccc2C1=O" records melting point below 100 °C. condition not met

A record lists "CN(C(=O)N(C)c1ccccc1)c1ccccc1" . Is its melting point below 100 °C? condition not met

is_below(melting point, 100 °C) for "C#CCCCCCCCCCCCCC" ? condition met

Determine if "CCCCCCOc1ccc(O)cc1" shows melting point strictly lower than 100 °C. condition met

For this compound, is melting point lower than 100 °C? "C[Si](C)(CCCC(=O)O)O[Si](C)(C)CCCC(=O)O" condition met

Threshold test, melting point < 100 °C: "N#Cc1ccccc1C(F)(F)F" condition met

Confirm or reject: melting point of "O=C(O)C(F)(F)C(F)(F)C(F)(F)C(=O)O" lies strictly below 100 °C condition met

----------
Parameter melting point: see the listing below.
# unit: °C | format: bare number

// solved cases for melting point follow
{"columns": ["molecule", "measuredParameter", "measured"],
 "data": [
  ["O=[N+]([O-])c1ccc2c3c(ccc(C(Cl)=Cc4ccccc4)c13)CC2", "melting point", 161],
  ["FC(F)(F)C(F)(F)C(F)(F)C(F)(F)OC(F)(F)C(F)(F)C(F)(F)C(F)(F)F", "melting point", -100],
  ["O=C(Cc1ccccc1)NC(CO)c1ccccc1 (stereo not drawn)", "melting point", 140],
  ["O=C(CNc1cccc([N+](=O)[O-])c1)c1ccccc1", "melting point", 169],
  ["Cc1ccc(C(=O)O)c(Cl)n1", "melting point", 160]
]}

Quickly give me recorded melting point for "O=C(N=NC(=O)N1CCCCC1)N1CCCCC1" 135

Report measured melting point; entry is "CC(=O)Cc1ccco1" 29

----------
Classify as follows. Reported melting point greater than or equal to 100 °C: true. Reported melting point below: false.

Please review the entries below; each comes with its answer.
{"columns": ["compound", "labelClass"],
 "data": [
  ["Cc1c(Cl)ccc([N+](=O)[O-])c1Cl", "false"],
  ["CC(=O)Cc1ccccc1", "false"],
  ["O=[N+]([O-])c1ccccc1OCCOc1ccccc1[N+](=O)[O-]", "true"],
  ["CC(NC(=O)COC(=O)c1ccccc1)C(N)=O (configuration not stated)", "true"],
  ["O=C(Nc1nc(-c2ccccc2)cs1)c1ccccc1", "true"]
]}

Kindly determine if melting point recorded for "CCCCOCCOCCOCCO" is above or exactly 100 °C. false
